System: SF-539
Experiment: NCI tumour cell line growth inhibition, 48 h
Activity calls are given as the source filed them. Rule as the data show it: active = GI50 up to about 1.1 µM and inactive = higher.
Answer with one of the outcomes given here: active, inactive

CN1CCc2[nH]nc(-c3n[nH]c4c3CN(C)CC4)c2C1 | inactive
CC12CC3CC/C(=N\O)C(C1)C3(N1CCOCC1)C/C2=N/O (stereo unspecified) | inactive
O=C1CSC(c2ccccc2O)N1c1ccc(-c2ccc(-n3c(-c4ccccc4)nc4ccccc4c3=O)cc2)cc1 (stereo unspecified) | inactive
O=C(c1ccccc1)C1N=NCC1c1ccc([N+](=O)[O-])cc1 (stereo unspecified) | inactive

Consider the additional compound presented here.
Problem: # fetch the recorded call for `N#Cc1nc(COCCOCc2ccccc2)oc1N` here
Result: inactive

====

# maps each entry to its GI50
Test system: ACHN
Assay: NCI tumour cell line growth inhibition, 48 h
Calls of active or inactive are those of the source. No stated cut-off is given here; in the data, active = GI50 up to about 1.1 µM and inactive = higher.

These solved cases illustrate the format of a correct answer.
CN(C)CCNC(=O)c1cccc2c(NC(CS)C(=O)O)c3ccccc3[n+](C)c12 (centres undefined) | 35.5 µM (inactive)
O=C(NC(=S)Nc1ccc(Br)cc1)c1ccc2c(c1)Sc1ccccc1S2 | 18.2 µM (inactive)
O=C1CCCC2COc3ccc(O)c1c32 (centres undefined) | > 100 µM (inactive)
CC12CC3CC/C(=N\O)C(C1)C3(N1CCOCC1)C/C2=N/O (centres undefined) | > 100 µM (inactive)
O=[N+]([O-])c1cc2ccc1OCc1cccc(n1)COc1ccc(cc1[N+](=O)[O-])/C=N\CCCCCCCC/N=C\2 | > 100 µM (inactive)
CC1(C)[C@H]2Cc3cc4nc5ccccn5c4cc3[C@@H]1C2 | 18.7 µM (inactive)

Problem: Note GI50 for the molecule shown: COc1cc(C2S/C(=C/c3ccccc3)C(=O)N2c2ccc(NC(C)=O)cc2)cc(OC)c1OC (centres undefined)
Result: 22.7 µM (inactive)

Problem: Note GI50 for the molecule shown: C=C1C2CC(OC(C)=O)C3(C)C(c4ccoc4)OC(=O)[C@@H](O)[C@]13OC1C[C@H](OC(C)=O)C(C)(C)[C@H](C(O)C(=O)OC)[C@]12C (some centres undefined)
Result: > 100 µM (inactive)

Problem: Note GI50 for the molecule shown: `Cc1c(C(=O)CC(=O)C(=O)Nc2ccc(Cl)c(Cl)c2)[n+]([O-])c2ccccc2[n+]1[O-]`
Result: 20.3 µM (inactive)

====

# maps each entry to its GI50
System: NCI-H460
Experiment: NCI tumour cell line growth inhibition, 48 h
Activity calls are given as the source filed them. No stated cut-off is given here; in the data, active = GI50 up to about 1.1 µM and inactive = higher.

These solved cases illustrate the format of a correct answer.
CC(=O)Oc1ccc2c(C)cc(=O)oc2c1 | > 100 µM (inactive)
O=C(NC(=S)Nc1ccc(Br)cc1)c1ccc2c(c1)Sc1ccccc1S2 | 17.9 µM (inactive)
O=C(C1OC1c1ccc(Cl)cc1)C12CC3CC(CC(C3)C1)C2 (stereo unspecified) | 14.9 µM (inactive)

Problem: Note GI50 for the molecule shown: c1ccc(CNC2CC(NCc3ccccn3)CC(NCc3ccccn3)C2)nc1 (stereo unspecified)
Result: 2.6 µM (inactive)

Problem: Note GI50 for the molecule shown: `O=C1/C(=C\c2c(-c3ccccc3)[nH]n(-c3ccccc3)c2=O)C(c2ccccc2)=NN1c1ccccc1`
Result: > 100 µM (inactive)

Problem: Note GI50 for the molecule shown: `C=C(Br)CNC(=O)CCC(=O)NCC(=C)Br`
Result: > 100 µM (inactive)

====

Test system: EKVX
Experiment: NCI tumour cell line growth inhibition, 48 h
The source made the active and inactive calls. No stated cut-off is given here; in the data, active = GI50 up to about 1.1 µM and inactive = higher.
Answer with one of the outcomes given here: y (active), n (inactive)

# example entries with known answers
O=[N+]([O-])c1cc2ccc1OCc1cccc(n1)COc1ccc(cc1[N+](=O)[O-])/C=N\CCCCCCCC/N=C\2 | n
COc1ccc(/C=C2/C(C)=NN(c3cccc(Cl)c3)/C2=N/c2nc3ccccc3s2)cc1 | n
CCCC(=O)OC[n+]1cccc(-c2c(COC(=O)NC(C)C)c(COC(=O)NC(C)C)c3n2CCC3)c1 | n
C=C1C(O)C2(O)OCC34C(CC5C(C)=CC(=O)C(O)C5(C)C23)OC(=O)C(OC(=O)C/C=C(\C)CCCCC)C14 (stereo not drawn) | y
C=C1C2CC(OC(C)=O)C3(C)C(c4ccoc4)OC(=O)[C@@H](O)[C@]13OC1C[C@H](OC(C)=O)C(C)(C)[C@H](C(O)C(=O)OC)[C@]12C (stereo partly drawn) | n
CC(=NNC(=S)Nc1ccc(C)cc1)c1cccc(C(C)=NNC(=S)Nc2ccc(C)cc2)n1 | n
Cc1cc(Cl)ccc1NC(=O)/C(=N\NC(C)(C)C)C(C#N)c1nc(-c2ccc([N+](=O)[O-])cc2)cs1 (stereo not drawn) | n

Problem: # fetch the recorded call for `CCC(C)(C)c1ccc(Oc2cccc(C(=O)O)c2)cc1` here
Result: n

====

Tested on: MDA-MB-231
Assay: NCI tumour cell line growth inhibition, 48 h
Active and inactive are the calls of the source. Cut-off read from the data, not from the text of the source: active = GI50 up to about 1.1 µM and inactive = higher.
# maps each entry to its GI50

These solved cases illustrate the format of a correct answer.
O=C(CC1(O)C(=O)Nc2c(Cl)cc(Cl)cc21)c1cccc([N+](=O)[O-])c1 (configuration not stated) | 29.9 µM (inactive)
O/N=C1\CC2(N3CCOCC3)CCC1(Cc1ccccc1)CC2 | 26.2 µM (inactive)

Problem: Note GI50 for the molecule shown: `COc1cc(OC)cc(-n2c(N)c(C#N)c3ccc([N+](=O)[O-])cc3c2=O)c1`
Result: 37.5 µM (inactive)

Problem: Note GI50 for the molecule shown: `OCCOCCN1CCN(CCCN2c3ccccc3Sc3ccc(C(F)(F)F)cc32)CC1`
Result: 11.1 µM (inactive)

Problem: Note GI50 for the molecule shown: `CC(C)(C)OC(=O)[C@@H]1CCC(=O)N1C1(c2ccccc2)c2ccccc2-c2ccccc21`
Result: 16.4 µM (inactive)

Problem: Note GI50 for the molecule shown: Nc1ccc(C2SCC(=O)N2NS(=O)(=O)c2cccc(C(=O)O)c2)cc1 (configuration not stated)
Result: > 100 µM (inactive)

Problem: Note GI50 for the molecule shown: `Cc1cccc(NC(=S)NNC(=O)c2cc(-c3ccccc3)nc3ccccc23)c1`
Result: 27.9 µM (inactive)

Problem: Note GI50 for the molecule shown: `CC(C)NC(=O)OCCN=C1c2ccccc2CCc2ccccc21`
Result: 25.2 µM (inactive)

Problem: Note GI50 for the molecule shown: `Nc1nc2c(c(-c3ccccc3Cl)n1)COC/C2=C\c1ccccc1Cl`
Result: 16.9 µM (inactive)

Problem: Note GI50 for the molecule shown: `CC1=C(C)C(=O)C(C2=CC(=O)C=CC2=O)=C(C2=CC(=O)C=CC2=O)C1=O`
Result: 18.4 µM (inactive)

Problem: Note GI50 for the molecule shown: `CCCCCCCCNC(=O)C1=C(C)NC(C)=C(C(=O)NCCCCCCCC)C1`
Result: 69.3 µM (inactive)

Problem: Note GI50 for the molecule shown: `N=C(N)SCc1ccc(Cl)c2ccccc12.O=[N+]([O-])c1ccc(O)c([N+](=O)[O-])c1`
Result: 12.7 µM (inactive)

Problem: Note GI50 for the molecule shown: `CCOP(=O)(OCC)C(F)(F)Cc1cnc(C)c2c1COC(C)(C)O2`
Result: > 10 µM (inactive)

Problem: Note GI50 for the molecule shown: Cc1nn(C(=O)c2ccccc2O)c2c1C(c1ccc(O)cc1)SC(=N)N2 (configuration not stated)
Result: > 3.18 µM (inactive)

Problem: Note GI50 for the molecule shown: O=C(c1ccccc1)C1N=NCC1c1ccc([N+](=O)[O-])cc1 (configuration not stated)
Result: > 100 µM (inactive)

Problem: Note GI50 for the molecule shown: `OCSc1nn(CO)c(=S)s1`
Result: 28.1 µM (inactive)

Problem: Note GI50 for the molecule shown: `N#CC(=S)Nc1cccc(Cl)c1`
Result: 38.4 µM (inactive)

====

Tested on: PC-3
Test: NCI tumour cell line growth inhibition, 48 h
Activity calls are given as the source filed them. Rule as the data show it: active = GI50 up to about 1.1 µM and inactive = higher.
Recorded metric: GI50

COc1cc(C(=O)Oc2ccc3c(c2)OCO3)cc(OC)c1OC | > 100 µM (inactive)
CSc1ncnc2c1ncn2C1CC(Oc2ccc(C)cc2)C(COc2ccc(C)cc2)O1 (configuration not stated) | > 100 µM (inactive)
CC(C)NC(=O)OCCN=C1c2ccccc2CCc2ccccc21 | 20.5 µM (inactive)
CC(=O)Nc1ccc(OC2=CCN(C)CC2)cc1 | > 100 µM (inactive)
COc1ccc(C(CC2(c3ccc(OC)cc3)SCCCS2)NC(C)=O)cc1 (configuration not stated) | 23.8 µM (inactive)

Problem: Note GI50 for the molecule shown: `C=CCc1cccc2cc(C(=O)NC3CCCCC3)c(=N)oc12`
Result: 16.1 µM (inactive)

Problem: Note GI50 for the molecule shown: O=C1CSC(c2ccccc2O)N1c1ccc(-c2ccc(-n3c(-c4ccccc4)nc4ccccc4c3=O)cc2)cc1 (configuration not stated)
Result: 27.7 µM (inactive)
